Sourced from the Kinase Knowledgebase extract (Sharma et al. 2016)

Known inhibition of a selection of compounds
target: MAPK14 (human); experiment: Inhibition of LPS Stimulated TNF Production by U937 Cells; conditions: concentration not given here
Answer by giving the amount and then stating its unit.

Q) Which value of inhibition has been reported for CCCOC(=O)N[C@H](C)c1[nH]nc(-c2ccc(F)cc2)c1-c1ccncc1 in the records?
A) 54%

Q) Could you do the same for COc1cccc(CC(=O)NCCc2[nH]nc(-c3ccc(F)cc3)c2-c2ccncc2)c1 , please?
A) 31%

Q) Moving on to the next compound: O=S(=O)(NCc1[nH]nc(-c2ccc(F)cc2)c1-c1ccncc1)c1cccc(Br)c1
A) 90%

Q) What do we get for COc1ccc(CC(=O)N[C@H](C)c2[nH]nc(-c3ccc(F)cc3)c2-c2ccncc2)cc1OC ?
A) 28%

Q) What do you have for C[C@@H](NC(=O)c1cc(F)ccc1F)c1[nH]nc(-c2ccc(F)cc2)c1-c1ccncc1 ?
A) 67%

Q) Also, CCOC(=O)c1cccc(NC(=O)NCCc2[nH]nc(-c3ccc(F)cc3)c2-c2ccncc2)c1 please.
A) 2%

Q) Note, next up: C[C@H](NC(=O)c1cccc(F)c1F)c1[nH]nc(-c2ccc(F)cc2)c1-c1ccncc1
A) 32%

Q) And CSc1cccc(NC(=O)NCCc2[nH]nc(-c3ccc(F)cc3)c2-c2ccncc2)c1 ?
A) 37%

Q) Then this compound: CCN(CC)C(=O)N[C@H](C)c1[nH]nc(-c2ccc(F)cc2)c1-c1ccncc1
A) 49%

---

pIC50 for assorted compounds
target: MAPK14 (human); assay: Inhibition of MAPK14 Kinase Activity by PHAS-I Assay
Give only the number. pIC50 is defined as minus log10 of concentration in molar units.

Recorded results for 4 compounds are shown here.
[
  {
    "smiles_notation": "COc1ccc(Br)cc1S(=O)(=O)N[C@@H](C)c1[nH]nc(-c2ccc(F)cc2)c1-c1ccncc1",
    "value_kind": "pIC50",
    "reading": 5.75
  },
  {
    "smiles_notation": "O=C(NCCCc1[nH]nc(-c2ccc(F)cc2)c1-c1ccncc1)NCCc1ccc(F)cc1",
    "value_kind": "pIC50",
    "reading": 7.72
  },
  {
    "smiles_notation": "COCC(=O)N[C@H]1CC[C@@H](c2[nH]nc(-c3ccc(Cl)cc3)c2-c2ccncc2)CC1",
    "value_kind": "pIC50",
    "reading": 7.11
  },
  {
    "smiles_notation": "COc1ccc(Br)cc1S(=O)(=O)N[C@H](C)c1[nH]nc(-c2ccc(F)cc2)c1-c1ccncc1",
    "value_kind": "pIC50",
    "reading": 7.62
  }
]

Q) Name the reported pIC50 value associated with the compound CCN(CC)C(=O)N[C@@H](Cc1ccccc1)c1[nH]nc(-c2ccc(F)cc2)c1-c1ccncc1
A) 5.66

---

molecular target: MAPK14 (human) (UniProt Q16539); assay: Inhibition of LPS Stimulated TNF Production by U937 Cells; settings: concentration not given here
Sequence (Q16539 whole entry, looked up): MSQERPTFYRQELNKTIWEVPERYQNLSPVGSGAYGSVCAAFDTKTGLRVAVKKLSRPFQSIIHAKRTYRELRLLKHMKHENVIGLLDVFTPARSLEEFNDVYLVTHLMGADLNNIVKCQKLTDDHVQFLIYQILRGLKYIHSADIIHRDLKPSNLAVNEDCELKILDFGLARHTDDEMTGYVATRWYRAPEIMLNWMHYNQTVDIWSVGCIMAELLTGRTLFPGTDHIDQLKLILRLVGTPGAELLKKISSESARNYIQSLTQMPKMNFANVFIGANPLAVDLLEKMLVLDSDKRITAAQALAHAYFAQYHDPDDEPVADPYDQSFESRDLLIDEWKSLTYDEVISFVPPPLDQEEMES
Everything with inhibition lower than 50% is not met; everything else, including exactly 50%, is met.

Solved entries:
[
  {
    "smiles_notation": "COc1ccc(Br)cc1S(=O)(=O)N1CCC(c2[nH]nc(-c3ccc(F)cc3)c2-c2ccncc2)CC1",
    "assigned_label": "not met"
  },
  {
    "smiles_notation": "CCN(Cc1ccncc1)C(=O)Cn1nc(-c2ccc(F)cc2)c(-c2ccncc2)c1C",
    "assigned_label": "not met"
  },
  {
    "smiles_notation": "C[C@@H](NC(=O)c1ccc(Cl)cc1)c1[nH]nc(-c2ccc(F)cc2)c1-c1ccncc1",
    "assigned_label": "not met"
  },
  {
    "smiles_notation": "Cc1ccccc1C(=O)NCc1[nH]nc(-c2ccc(F)cc2)c1-c1ccncc1",
    "assigned_label": "not met"
  }
]

Q) Has CCN(CC)C(=O)N[C@@H](C)c1[nH]nc(-c2ccc(F)cc2)c1-c1ccncc1 a recorded inhibition greater than or equal to 50%?
A) met

Q) Another compound to check: O=C(NCCc1ccccc1)NCc1[nH]nc(-c2ccc(F)cc2)c1-c1ccncc1
A) not met

Q) Same lookup for O=C(NCc1[nH]nc(-c2ccc(F)cc2)c1-c1ccncc1)[C@@H]1CCCN1C(=O)OCC1c2ccccc2-c2ccccc21 , please.
A) met

Q) And for CSCCC(=O)NCc1[nH]nc(-c2ccc(F)cc2)c1-c1ccncc1 ?
A) not met

---

target: UniProtKB Q16539; test: Inhibition of MAPK14 Kinase Activity by PHAS-I Assay; conditions: concentration not given here
Known inhibition of a selection of compounds
Return type: number; implicit unit %.

Examples with their reported inhibition follow.
[
  {
    "smiles_notation": "O=C(NCCCc1[nH]nc(-c2ccc(F)cc2)c1-c1ccncc1)c1ccccc1C(F)(F)F",
    "value_kind": "inhibition",
    "reading": 65
  },
  {
    "smiles_notation": "CC(=O)OCC(=O)NCCc1[nH]nc(-c2ccc(F)cc2)c1-c1ccncc1",
    "value_kind": "inhibition",
    "reading": 62
  },
  {
    "smiles_notation": "CCN1CC(NC(=O)Cn2nc(-c3ccc(F)cc3)c(-c3ccncc3)c2C)CN1CC",
    "value_kind": "inhibition",
    "reading": 47
  },
  {
    "smiles_notation": "O=C(NCCc1[nH]nc(-c2ccc(F)cc2)c1-c1ccncc1)Nc1ccccc1OC(F)(F)F",
    "value_kind": "inhibition",
    "reading": 66
  },
  {
    "smiles_notation": "Cc1ccc(S(=O)(=O)N[C@@H](Cc2ccccc2)C(=O)NCCc2[nH]nc(-c3ccc(F)cc3)c2-c2ccncc2)cc1",
    "value_kind": "inhibition",
    "reading": 72
  },
  {
    "smiles_notation": "Cc1c(-c2ccncc2)c(-c2ccc(F)cc2)nn1CC(=O)NC1CCCCCC1",
    "value_kind": "inhibition",
    "reading": 82
  }
]

Q) Recorded inhibition for O=C(NCCCc1[nH]nc(-c2ccc(F)cc2)c1-c1ccncc1)Nc1ccccc1 , please?
A) 81

Q) Another compound to look at: Cc1c(-c2ccncc2)c(-c2ccc(F)cc2)nn1CC(=O)Nc1c(Cl)cccc1Cl
A) 89

Q) Can you check Cc1cccc(OC(=O)c2ccc(NC(=O)Cn3nc(-c4ccc(F)cc4)c(-c4ccncc4)c3C)cc2)c1 next?
A) 89

---

In this section, each of the compounds is paired with its reported inhibition.
molecular target: MAPK14 (human) (UniProt Q16539); experiment: Inhibition of LPS Stimulated TNF Production by U937 Cells; settings: concentration not given here
# number only, unit % dropped from output

Example entries and their recorded answers appear below.
[
  {
    "smiles_notation": "CNC(=O)CC[C@H](NC(=O)C1CC1)c1[nH]nc(-c2ccc(F)cc2)c1-c1ccncc1",
    "target_entity": "MAPK14 (human) (UniProt Q16539)",
    "value_unit": "%",
    "inhibition": 28
  },
  {
    "smiles_notation": "CS(=O)(=O)NCCc1[nH]nc(-c2ccc(F)cc2)c1-c1ccncc1",
    "target_entity": "MAPK14 (human) (UniProt Q16539)",
    "value_unit": "%",
    "inhibition": 57
  },
  {
    "smiles_notation": "C[C@H](NS(=O)(=O)c1cccc2cnccc12)c1[nH]nc(-c2ccc(F)cc2)c1-c1ccncc1",
    "target_entity": "MAPK14 (human) (UniProt Q16539)",
    "value_unit": "%",
    "inhibition": 75
  },
  {
    "smiles_notation": "C[C@@H](NS(=O)(=O)c1ccccc1C(=O)O)c1[nH]nc(-c2ccc(F)cc2)c1-c1ccncc1",
    "target_entity": "MAPK14 (human) (UniProt Q16539)",
    "value_unit": "%",
    "inhibition": 59
  }
]

Moving on to the next compound.
Q) Which inhibition value is on record for C[C@@H](NC(=O)N(C)C)c1[nH]nc(-c2ccc(F)cc2)c1-c1ccncc1 ?
A) 27

---

biological target: MAPK14 (human); assay: Inhibition of MAPK14 Kinase Activity by PHAS-I Assay
Recorded pIC50, one value per entry.
// field semantics: pIC50 = negative decimal log of concentration (mol/L)

[
  {
    "molecule": "C[C@H](NC(=O)c1cc(F)cc(F)c1)c1[nH]nc(-c2ccc(F)cc2)c1-c1ccncc1",
    "pIC50": 7.21
  },
  {
    "molecule": "COc1cccc(C(=O)N[C@@H](C)c2[nH]nc(-c3ccc(F)cc3)c2-c2ccncc2)c1",
    "pIC50": 5.86
  },
  {
    "molecule": "CC(C)(N)Cc1[nH]nc(-c2ccc(F)cc2)c1-c1ccncc1",
    "pIC50": 6.96
  },
  {
    "molecule": "O=C(NCCCc1[nH]nc(-c2ccc(F)cc2)c1-c1ccncc1)NCCc1cccnc1",
    "pIC50": 7.15
  },
  {
    "molecule": "Cc1[nH]nc(-c2ccc3c(c2)CCCO3)c1-c1ccncc1",
    "pIC50": 6.10
  }
]

Q) Tell me the measured pIC50 of O=C(NCc1[nH]nc(-c2ccc(F)cc2)c1-c1ccncc1)c1cc(Cl)cc(Cl)c1 , please.
A) 5.57

Q) Field entry: C[C@H](NC(=O)Nc1ccccc1F)c1[nH]nc(-c2ccc(F)cc2)c1-c1ccncc1
A) 5.16

Q) Continue with C[C@H](NS(=O)(=O)c1cc(Cl)cc(Cl)c1O)c1[nH]nc(-c2ccc(F)cc2)c1-c1ccncc1
A) 6.77

Q) Repeat with CC1CCCCN1CCCNc1cc(-c2c[nH]nc2-c2ccc(F)cc2)ccn1 (stereo unspecified)
A) 6.28

Q) // repeat for Cc1cccc(S(=O)(=O)N[C@H](C)c2[nH]nc(-c3ccc(F)cc3)c2-c2ccncc2)c1 and report
A) 7.60

Q) What about this molecule? Cc1cccc(S(=O)(=O)NCc2[nH]nc(-c3ccc(F)cc3)c2-c2ccncc2)c1
A) 6.33

Q) Check CCN(CC)C(=O)NCc1[nH]nc(-c2ccc(F)cc2)c1-c1ccncc1 too.
A) 6.89

Q) Please do the same for Clc1ccc(-c2n[nH]c(SCOC3CCCCO3)c2-c2ccncc2)cc1 (stereo unspecified) as well.
A) 6.96
